Where these numbers come from: patent US20080044360A1

- target.or.test.system: T1, rat collagen, acid soluble, type I, rat tail (Upstate 08-115) (rat, UniProt P02454 152-1207; P02466 86-1125)
- T1 construct: tissue extract, gelled and dried in wells; also called dried rat collagen
- T1 sequence (P02454 152-1207, chain 1 of 2): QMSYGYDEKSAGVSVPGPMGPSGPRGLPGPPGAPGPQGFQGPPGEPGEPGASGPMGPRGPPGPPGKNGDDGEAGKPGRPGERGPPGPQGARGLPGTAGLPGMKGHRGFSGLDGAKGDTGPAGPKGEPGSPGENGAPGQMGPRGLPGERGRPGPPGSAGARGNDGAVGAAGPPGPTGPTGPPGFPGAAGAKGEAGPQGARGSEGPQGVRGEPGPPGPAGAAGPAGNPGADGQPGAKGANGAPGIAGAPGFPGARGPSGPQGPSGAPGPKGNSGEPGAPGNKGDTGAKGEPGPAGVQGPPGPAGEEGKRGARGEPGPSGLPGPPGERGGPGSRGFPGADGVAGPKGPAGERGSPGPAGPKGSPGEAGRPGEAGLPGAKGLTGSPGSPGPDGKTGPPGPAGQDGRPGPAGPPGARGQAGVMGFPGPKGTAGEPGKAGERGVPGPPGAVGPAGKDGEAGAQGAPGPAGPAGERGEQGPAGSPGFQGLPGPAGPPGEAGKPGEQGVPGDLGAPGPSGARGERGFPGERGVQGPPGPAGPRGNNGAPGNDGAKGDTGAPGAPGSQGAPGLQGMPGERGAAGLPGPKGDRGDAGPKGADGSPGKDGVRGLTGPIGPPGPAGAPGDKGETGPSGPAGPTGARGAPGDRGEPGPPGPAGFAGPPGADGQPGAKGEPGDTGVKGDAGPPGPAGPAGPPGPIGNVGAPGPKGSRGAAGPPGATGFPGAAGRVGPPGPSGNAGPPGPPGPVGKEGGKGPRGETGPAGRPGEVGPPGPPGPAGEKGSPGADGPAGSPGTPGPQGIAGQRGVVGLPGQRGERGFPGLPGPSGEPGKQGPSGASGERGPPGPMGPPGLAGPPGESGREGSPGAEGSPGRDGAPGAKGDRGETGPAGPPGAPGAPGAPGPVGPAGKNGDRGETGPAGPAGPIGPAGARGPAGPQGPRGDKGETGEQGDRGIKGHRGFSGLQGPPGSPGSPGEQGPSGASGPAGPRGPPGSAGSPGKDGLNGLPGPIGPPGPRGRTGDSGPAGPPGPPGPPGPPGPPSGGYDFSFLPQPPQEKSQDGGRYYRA
- T1 sequence (P02466 86-1125, chain 2 of 2): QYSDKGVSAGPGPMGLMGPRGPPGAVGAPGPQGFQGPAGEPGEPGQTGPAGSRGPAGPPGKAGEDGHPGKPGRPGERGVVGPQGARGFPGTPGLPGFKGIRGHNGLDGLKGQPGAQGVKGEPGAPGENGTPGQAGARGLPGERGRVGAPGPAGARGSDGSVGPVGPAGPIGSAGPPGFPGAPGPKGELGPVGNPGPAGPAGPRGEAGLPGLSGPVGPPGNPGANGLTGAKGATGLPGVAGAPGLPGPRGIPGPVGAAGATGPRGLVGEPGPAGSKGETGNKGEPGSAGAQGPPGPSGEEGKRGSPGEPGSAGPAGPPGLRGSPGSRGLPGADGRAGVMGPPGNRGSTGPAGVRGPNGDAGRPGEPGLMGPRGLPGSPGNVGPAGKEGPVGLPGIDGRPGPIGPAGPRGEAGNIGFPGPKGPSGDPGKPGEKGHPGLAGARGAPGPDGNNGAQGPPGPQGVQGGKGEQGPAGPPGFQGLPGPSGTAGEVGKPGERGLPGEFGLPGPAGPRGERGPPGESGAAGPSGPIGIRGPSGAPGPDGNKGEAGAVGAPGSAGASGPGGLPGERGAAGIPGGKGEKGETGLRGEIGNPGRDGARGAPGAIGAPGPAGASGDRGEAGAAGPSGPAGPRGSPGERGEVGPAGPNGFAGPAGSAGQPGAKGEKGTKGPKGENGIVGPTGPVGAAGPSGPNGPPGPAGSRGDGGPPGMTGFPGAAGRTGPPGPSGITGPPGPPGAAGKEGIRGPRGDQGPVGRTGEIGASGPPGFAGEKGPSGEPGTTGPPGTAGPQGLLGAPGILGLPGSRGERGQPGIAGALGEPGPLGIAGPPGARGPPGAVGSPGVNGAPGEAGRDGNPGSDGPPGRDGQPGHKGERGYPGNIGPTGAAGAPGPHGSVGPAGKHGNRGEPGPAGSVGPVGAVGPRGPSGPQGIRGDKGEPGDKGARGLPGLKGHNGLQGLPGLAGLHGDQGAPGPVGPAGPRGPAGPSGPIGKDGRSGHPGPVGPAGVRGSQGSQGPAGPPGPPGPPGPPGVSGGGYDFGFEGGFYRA
- test.name: dried collagen assay
Bridge positions count the residues as written; N and C are the ends. Square brackets hold non-standard residues; d marks the D form. Primed or numbered codes have the meaning given here. Side chains are listed from the residue outwards. Ends that are not written are not given here. * marks the point of attachment. Tyr(3-NO2) = N[C@@H](Cc1ccc(O)c([N+](=O)[O-])c1)C(=O)O; Gd^D = GdDOTAGA (gadolinium DOTAGA chelate); Tyr(3-I) = N[C@@H](Cc1ccc(O)c(I)c1)C(=O)O; Gd^G = not defined here; Gd^T = not defined here; Gd^T″ = GdDTPA-thiourea; NH(CH2)6NH2 = NCCCCCCN*
result.type: % bound

binder	measurement
{Gd^T″}-GK([Gly-Gd^T″])WHCYTYFPHHYCVYG-{NH(CH2)6NH2-Gd^T″} (disulfide 5-14 (inferred)) [Compound ID 999]	66%
{Gd^T}-G[dQ]WHCTTRFPHHYCLYG (disulfide 5-14 (inferred); not fully specified (C-terminus); reading uncertain) [Compound ID 866]	38%
{Gd^T}-DWTC[Tyr(3-NO2)]GDEYTWHCNYE (disulfide 4-13 (inferred); not fully specified (C-terminus); reading uncertain) [Compound ID 843]	36%
{Gd^T″}-GK([Gly-Gd^T″])WHCYTYFPHHYCLYVK(Gd^T″) (disulfide 5-14 (inferred); not fully specified (C-terminus)) [Compound ID 989]	74%
{Gd^D}-K(Gd^D)K(Gd^D)AWHCYTYFPHHYCVYG (disulfide 6-15 (inferred)) [Compound ID 1016]	50%
{Gd^T″}-GQWHCTYLFPHHYCLYG (disulfide 5-14 (inferred)) [Compound ID 921]	35%
GQWHCYTLFPHHYCLYG (disulfide 5-14 (inferred); not fully specified (N-terminus)) [Compound ID 920]	91%
{Gd^G}-GQWTCSGDAYTWHCAYE (disulfide 5-14 (inferred); not fully specified (C-terminus); reading uncertain) [Compound ID 820]	29%
{Gd^T}-DWTCSGDE[Tyr(3-I)]TWHCNYE (disulfide 4-13 (inferred); not fully specified (C-terminus); reading uncertain) [Compound ID 846]	9%
